Target: PI3K-δ (PI3K(p1108/p857) (h)) (Homo sapiens, UniProt O00329)
Sequence (O00329 whole entry): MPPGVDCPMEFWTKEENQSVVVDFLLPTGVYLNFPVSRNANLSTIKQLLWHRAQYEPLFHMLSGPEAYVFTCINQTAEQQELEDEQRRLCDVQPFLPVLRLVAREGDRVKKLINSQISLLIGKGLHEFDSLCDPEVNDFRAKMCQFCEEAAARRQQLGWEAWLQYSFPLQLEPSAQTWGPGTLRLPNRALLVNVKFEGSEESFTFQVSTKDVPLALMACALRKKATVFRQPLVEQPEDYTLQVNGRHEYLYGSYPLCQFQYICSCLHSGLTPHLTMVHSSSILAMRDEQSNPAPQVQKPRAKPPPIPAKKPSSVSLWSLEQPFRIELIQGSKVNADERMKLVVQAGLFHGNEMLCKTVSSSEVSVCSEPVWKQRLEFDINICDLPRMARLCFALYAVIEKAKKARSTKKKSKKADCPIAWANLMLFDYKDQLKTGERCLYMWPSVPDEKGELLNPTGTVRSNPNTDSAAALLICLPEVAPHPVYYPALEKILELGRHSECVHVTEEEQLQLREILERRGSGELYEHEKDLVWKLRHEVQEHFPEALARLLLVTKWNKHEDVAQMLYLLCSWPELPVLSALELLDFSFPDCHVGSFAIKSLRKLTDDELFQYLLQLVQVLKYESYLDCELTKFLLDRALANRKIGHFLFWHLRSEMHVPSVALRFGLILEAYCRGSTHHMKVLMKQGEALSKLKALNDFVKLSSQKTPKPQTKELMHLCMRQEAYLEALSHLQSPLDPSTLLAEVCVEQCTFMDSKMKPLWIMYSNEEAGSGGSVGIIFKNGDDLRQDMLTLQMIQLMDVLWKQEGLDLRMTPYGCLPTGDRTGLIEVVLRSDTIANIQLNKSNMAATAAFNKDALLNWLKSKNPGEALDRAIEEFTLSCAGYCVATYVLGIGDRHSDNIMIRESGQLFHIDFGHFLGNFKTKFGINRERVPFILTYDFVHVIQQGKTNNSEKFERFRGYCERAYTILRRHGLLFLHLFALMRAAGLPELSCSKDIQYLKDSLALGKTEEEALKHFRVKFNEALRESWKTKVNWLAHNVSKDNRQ
Sequence (P27986 whole entry partner): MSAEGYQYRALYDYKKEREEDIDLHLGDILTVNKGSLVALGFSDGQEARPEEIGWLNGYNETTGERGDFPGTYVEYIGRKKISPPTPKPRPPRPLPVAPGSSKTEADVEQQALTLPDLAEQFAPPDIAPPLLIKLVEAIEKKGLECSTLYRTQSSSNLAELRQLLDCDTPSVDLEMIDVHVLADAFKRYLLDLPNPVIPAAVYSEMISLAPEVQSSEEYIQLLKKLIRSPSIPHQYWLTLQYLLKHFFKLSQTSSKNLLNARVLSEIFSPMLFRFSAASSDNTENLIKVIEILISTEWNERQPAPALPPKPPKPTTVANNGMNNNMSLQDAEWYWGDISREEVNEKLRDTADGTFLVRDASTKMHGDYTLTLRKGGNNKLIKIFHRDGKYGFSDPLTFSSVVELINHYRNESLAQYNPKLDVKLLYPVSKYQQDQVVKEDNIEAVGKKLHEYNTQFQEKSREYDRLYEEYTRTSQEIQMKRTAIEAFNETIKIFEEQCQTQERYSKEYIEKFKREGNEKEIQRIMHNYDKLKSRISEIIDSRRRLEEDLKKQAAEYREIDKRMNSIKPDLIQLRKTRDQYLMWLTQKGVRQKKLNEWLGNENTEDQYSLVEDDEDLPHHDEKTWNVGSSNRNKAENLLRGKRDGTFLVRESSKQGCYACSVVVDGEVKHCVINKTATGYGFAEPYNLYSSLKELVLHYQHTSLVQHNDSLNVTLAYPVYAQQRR
Test: Evaluation of inhibitory activity against PI3K-δ (HTRF kinase assay)
Assay type: biochemical
Conditions: compound concentration 0.1 μM; read-out: EXP_VALUE(% Inhibition) PI3K-δ 0.1 μM
Experimental Endpoint: inhibition at 0.1 µM (%)

| Smiles Record | inhibition at 0.1 µM [%] |
| --- | --- |
| C[C@H](Nc1ncnc2[nH]ccc(=O)c12)c1c(Cl)c2cccc(-c3ccc4c(ccn4C)c3)c2c(=O)n1-c1ccccc1 | 101 |
| Cc1c[nH]c2ccc(-c3cccc4cc([C@H](C)Nc5ncnc6[nH]ccc(=O)c56)n(-c5ccccc5)c(=O)c34)cc12 | 89 |
| Cc1ccc(-c2cccc3c(Br)c([C@H](C)Nc4ncnc5[nH]ccc(=O)c45)n(-c4ccccc4)c(=O)c23)cn1 | 97 |
| C[C@H](Nc1ncnc2[nH]ccc(=O)c12)c1c(Cl)c2cccc(-c3ccc4[nH]ccc4c3)c2c(=O)n1-c1ccccc1 | 86 |

(A) C[C@H](Nc1ncnc2[nH]ccc(=O)c12)c1c(Cl)c2cccc(-c3ccc(C(N)=O)cc3)c2c(=O)n1-c1ccccc1
(B) C[C@H](Nc1ncnc2[nH]ccc(=O)c12)c1c(Cl)c2cccc(N3CCN(c4ccccc4)CC3)c2c(=O)n1-c1ccccc1
Query string: Task for the reader: decide whether A or B has the larger inhibition at 0.1 µM. Respond with the label that goes with your answer.
Result string: A

---

Molecular target: DNA-PK(h) (Homo sapiens, UniProt P78527)
Assay: Evaluation of inhibitory activity against DNA-PK (HTRF kinase assay, GST-cMyc-p53 substrate)
Type: biochemical
Conditions: compound concentration 0.01 μM; read-out: EXP_VALUE(% Inhibition) DNA-PK(h) 0.01 μM
Protocol: <Experimental Example 2> Evaluation of Inhibitory Activity Properties Against DNA-PK […] DNA-PK(h) was subjected to an isothermal treatment in an assay buffer comprising […] GST-cMyc-p53 and Mg/ATP (at a concentration as required). […] A plate was read in a time-resolved fluorescence mode and a homogeneous time-resolved fluorescence (HTRF) signal was determined according to HTRF=10000×(Em 665 nm/Em 620 nm).
Experimental Endpoint: inhibition at 0.01 µM (%)

| Smiles Record | Experimental Endpoint | Unit Abbreviation | Observed Result |
| --- | --- | --- | --- |
| C[C@H](Nc1ncnc2[nH]ccc(=O)c12)c1c(Cl)c2cccc(C3CC3)c2c(=O)n1-c1ccccc1 | inhibition at 0.01 µM | % | 59 |

(a) CCN(CC)c1ncc(-c2cccc3c(Cl)c([C@H](C)Nc4ncnc5[nH]ccc(=O)c45)n(-c4ccccc4)c(=O)c23)cn1
(b) CCCNC(=O)c1cccc2c(Cl)c([C@H](C)Nc3ncnc4[nH]ccc(=O)c34)n(-c3ccccc3)c(=O)c12
(c) C[C@H](Nc1ncnc2[nH]ccc(=O)c12)c1c(Cl)c2cccc(-c3cnc(N4CCCCC4)nc3)c2c(=O)n1-c1ccccc1
Query string: Rank entries according to their inhibition at 0.01 µM, from the largest number down. Note for the reader: the ranking is given by listing the labels in the order requested.
Result string: a, c, b

---

Biological target: PI3K-δ (PI3K(p1108/p857) (h)) (Homo sapiens, UniProt O00329)
Assay: Evaluation of inhibitory activity against PI3K-δ (HTRF kinase assay)
Format: biochemical
Details: compound concentration 0.01 μM; read-out: EXP_VALUE(% Inhibition) PI3K-δ 0.01 μM
Experimental Endpoint: inhibition at 0.01 µM (%)

Examples from the recorded data:
| Smiles Record | Target Under Test | inhibition at 0.01 µM, % |
| --- | --- | --- |
| C[C@H](Nc1ncnc2[nH]ccc(=O)c12)c1c(Cl)c2cccc(-c3cccc(Cl)c3)c2c(=O)n1-c1ccccc1 | PI3K-δ (PI3K(p1108/p857) (h)) (Homo sapiens, UniProt O00329) | 84 |
| CNc1ccc(-c2cccc3c(Cl)c([C@H](C)Nc4ncnc5[nH]ccc(=O)c45)n(-c4ccccc4)c(=O)c23)cn1 | PI3K-δ (PI3K(p1108/p857) (h)) (Homo sapiens, UniProt O00329) | 85 |
| C[C@H](Nc1ncnc2[nH]ccc(=O)c12)c1c(Cl)c2cccc(-c3cnc(N4CCOCC4)nc3)c2c(=O)n1-c1ccccc1 | PI3K-δ (PI3K(p1108/p857) (h)) (Homo sapiens, UniProt O00329) | 65 |
| C[C@H](Nc1ncnc2[nH]ccc(=O)c12)c1c(Cl)c2cccc(-c3ccc(N4CCCCC4)nc3)c2c(=O)n1-c1ccccc1 | PI3K-δ (PI3K(p1108/p857) (h)) (Homo sapiens, UniProt O00329) | 59 |

(A) COc1cncc(-c2cccc3c(Cl)c([C@H](C)Nc4ncnc5[nH]ccc(=O)c45)n(-c4ccccc4)c(=O)c23)n1
(B) CCCSc1ccc(-c2cccc3c(Cl)c([C@H](C)Nc4ncnc5[nH]ccc(=O)c45)n(-c4ccccc4)c(=O)c23)cc1
Query string: Would you let me know which has the greater inhibition at 0.01 µM value, A or B ? Answer by quoting the chosen item's label.
Result string: A
(A: 73%, B: 44%)

---

Target: DNA-PK(h) (Homo sapiens, UniProt P78527)
Test: Evaluation of inhibitory activity against DNA-PK (HTRF kinase assay, GST-cMyc-p53 substrate)
Format: biochemical
Details: compound at 0.1 μM; read-out: EXP_VALUE(% Inhibition) DNA-PK(h) 0.1 μM
Procedure: <Experimental Example 2> Evaluation of Inhibitory Activity Properties Against DNA-PK […] DNA-PK(h) was subjected to an isothermal treatment in an assay buffer comprising […] GST-cMyc-p53 and Mg/ATP (at a concentration as required). […] A plate was read in a time-resolved fluorescence mode and a homogeneous time-resolved fluorescence (HTRF) signal was determined according to HTRF=10000×(Em 665 nm/Em 620 nm).
Experimental Endpoint: inhibition at 0.1 µM (%)

| Compound | inhibition at 0.1 µM / % |
| --- | --- |
| C[C@H](Nc1ncnc2[nH]ccc(=O)c12)c1c(Cl)c2cccc(-c3cnc(C4(O)CCC4)nc3)c2c(=O)n1-c1ccccc1 | 64 |

(1) C[C@H](Nc1ncnc2[nH]ccc(=O)c12)c1c(Cl)c2cccc(-c3cnc(-c4cccs4)nc3)c2c(=O)n1-c1ccccc1
(2) C[C@H](Nc1ncnc2[nH]ccc(=O)c12)c1c(Cl)c2cccc(-c3cnc(Cl)nc3)c2c(=O)n1-c1ccccc1
(3) C[C@H](Nc1ncnc2[nH]ccc(=O)c12)c1c(Cl)c2cccc(Sc3ccc(F)cc3)c2c(=O)n1-c1ccccc1
Query string: Arrange by inhibition at 0.1 µM, high to low. Sort and list the labels as requested.
Result string: 1, 2, 3

---

Target: PI3K-δ (PI3K(p1108/p857) (h)) (Homo sapiens, UniProt O00329)
Assay: Evaluation of inhibitory activity against PI3K-δ (HTRF kinase assay)
Assay type: biochemical
Conditions: compound concentration 0.01 μM; read-out: EXP_VALUE(% Inhibition) PI3K-δ 0.01 μM
Experimental Endpoint: inhibition at 0.01 µM (%)

Examples with their reported inhibition at 0.01 µM follow.
| Smiles Record | Experimental Endpoint | Observed Result |
| --- | --- | --- |
| C[C@H](Nc1ncnc2[nH]ccc(=O)c12)c1c(Cl)c2cccc(-c3ccc([Si](C)(C)C)cc3)c2c(=O)n1-c1ccccc1 | inhibition at 0.01 µM | 9 |
| C[C@H](Nc1ncnc2[nH]ccc(=O)c12)c1c(Cl)c2cccc(-c3ncc(F)cn3)c2c(=O)n1-c1ccccc1 | inhibition at 0.01 µM | 11 |
| C[C@H](Nc1ncnc2[nH]ccc(=O)c12)c1c(Cl)c2cccc(-c3ccc4c(c3)OCCO4)c2c(=O)n1-c1ccccc1 | inhibition at 0.01 µM | 105 |
| C[C@H](Nc1ncnc2[nH]ccc(=O)c12)c1c(Cl)c2cccc(-c3nc4ccccc4o3)c2c(=O)n1-c1ccccc1 | inhibition at 0.01 µM | 45 |
| C[C@H](Nc1ncnc2[nH]ccc(=O)c12)c1c(Cl)c2cccc(-c3ccc(OC(F)(F)F)nc3)c2c(=O)n1-c1ccccc1 | inhibition at 0.01 µM | 68 |
| Cc1cc(F)ccc1-c1cccc2c(Cl)c([C@H](C)Nc3ncnc4[nH]ccc(=O)c34)n(-c3ccccc3)c(=O)c12 | inhibition at 0.01 µM | 81 |
| C[C@H](Nc1ncnc2[nH]ccc(=O)c12)c1c(C2CC2)c2cccc(Cl)c2c(=O)n1-c1ccccc1 | inhibition at 0.01 µM | 89 |
| C[C@H](Nc1ncnc2[nH]ccc(=O)c12)c1c(Cl)c2cccc(NC(=O)C(C)(C)C)c2c(=O)n1-c1ccccc1 | inhibition at 0.01 µM | 24 |

(P) C[C@H](Nc1ncnc2[nH]ccc(=O)c12)c1c(Cl)c2cccc(-c3cnc(N4CCOCC4)cn3)c2c(=O)n1-c1ccccc1
(Q) C[C@H](Nc1ncnc2[nH]ccc(=O)c12)c1c(Cl)c2cccc(-c3ccc(C4CCC4)cc3)c2c(=O)n1-c1ccccc1
(R) C[C@H](Nc1ncnc2[nH]ccc(=O)c12)c1c(Cl)c2cccc(-c3cc(F)cc(F)c3)c2c(=O)n1-c1ccccc1
Query string: Hey, quick one: sort these by inhibition at 0.01 µM, low to high? Field: ranking. Enter the labels in the order requested.
Result string: Q, P, R
(Q: 29%, P: 57%, R: 83%)
